The reported numbers originate from patent US10988477B2.

Molecular target: GCN2 kinase (Homo sapiens, UniProt Q9P2K8)
Sequence (Q9P2K8 whole entry): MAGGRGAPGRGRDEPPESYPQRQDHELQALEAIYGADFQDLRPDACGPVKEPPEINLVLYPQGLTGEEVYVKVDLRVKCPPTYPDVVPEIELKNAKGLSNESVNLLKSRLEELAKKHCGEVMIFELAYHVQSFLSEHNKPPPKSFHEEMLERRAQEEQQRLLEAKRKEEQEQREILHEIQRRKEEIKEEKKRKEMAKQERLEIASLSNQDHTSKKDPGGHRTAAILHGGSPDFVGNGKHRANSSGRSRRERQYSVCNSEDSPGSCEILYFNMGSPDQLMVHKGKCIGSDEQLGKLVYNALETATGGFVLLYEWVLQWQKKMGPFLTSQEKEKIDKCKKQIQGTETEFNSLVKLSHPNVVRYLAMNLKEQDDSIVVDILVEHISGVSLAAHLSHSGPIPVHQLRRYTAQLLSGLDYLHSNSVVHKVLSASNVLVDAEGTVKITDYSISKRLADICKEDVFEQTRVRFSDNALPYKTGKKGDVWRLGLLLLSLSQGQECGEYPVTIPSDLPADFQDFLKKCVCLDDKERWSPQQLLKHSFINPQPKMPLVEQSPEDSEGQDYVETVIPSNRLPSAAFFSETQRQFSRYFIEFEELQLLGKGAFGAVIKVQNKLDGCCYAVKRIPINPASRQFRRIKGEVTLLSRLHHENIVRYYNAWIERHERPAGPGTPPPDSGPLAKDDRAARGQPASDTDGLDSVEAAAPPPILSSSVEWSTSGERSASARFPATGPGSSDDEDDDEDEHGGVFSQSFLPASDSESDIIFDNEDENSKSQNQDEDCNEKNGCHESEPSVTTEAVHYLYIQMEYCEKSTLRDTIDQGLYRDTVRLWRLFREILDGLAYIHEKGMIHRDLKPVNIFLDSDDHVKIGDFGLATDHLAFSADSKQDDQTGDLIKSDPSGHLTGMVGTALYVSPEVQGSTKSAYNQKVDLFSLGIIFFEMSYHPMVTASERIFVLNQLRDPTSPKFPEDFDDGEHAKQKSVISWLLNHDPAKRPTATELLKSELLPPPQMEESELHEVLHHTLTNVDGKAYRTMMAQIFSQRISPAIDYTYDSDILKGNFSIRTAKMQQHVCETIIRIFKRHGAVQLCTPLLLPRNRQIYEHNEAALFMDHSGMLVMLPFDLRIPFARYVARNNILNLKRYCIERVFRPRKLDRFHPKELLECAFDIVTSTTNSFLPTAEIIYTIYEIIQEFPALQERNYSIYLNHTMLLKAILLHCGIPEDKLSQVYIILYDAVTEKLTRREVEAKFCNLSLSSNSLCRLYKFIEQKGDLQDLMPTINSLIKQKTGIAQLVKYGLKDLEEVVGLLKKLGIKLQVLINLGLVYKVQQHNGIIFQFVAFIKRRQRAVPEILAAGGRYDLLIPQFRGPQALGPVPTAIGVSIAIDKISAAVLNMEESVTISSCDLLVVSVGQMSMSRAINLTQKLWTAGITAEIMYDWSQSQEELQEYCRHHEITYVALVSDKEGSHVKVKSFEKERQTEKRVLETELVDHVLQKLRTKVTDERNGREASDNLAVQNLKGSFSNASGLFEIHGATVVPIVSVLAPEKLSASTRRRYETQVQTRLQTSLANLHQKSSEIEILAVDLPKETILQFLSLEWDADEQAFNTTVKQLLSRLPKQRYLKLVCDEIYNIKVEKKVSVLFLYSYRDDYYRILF
Assay: GCN2 enzyme inhibition assay (Transcreener ADP2 fluorescence polarization)
Assay type: biochemical
Details: Enzyme activity for compounds of Formula IV; Ki(app), 280 μM ATP, 25° C.
RECORDED ENDPOINT: Ki

Could you tell me which Ki is on file for CC1C(c2cn[nH]c2)CCCN1c1ccnc(-c2cnc3cnc(C(F)(F)F)cn23)n1 (single isomer, unassigned) [IV-419] ?
100 to 1000 nM

Could you tell me which Ki is on file for N#Cc1cn2c(-c3cccc(-c4cccc5[nH]ccc45)n3)cnc2cn1 ?
10 to 100 nM

Could you tell me which Ki is on file for CC1(C(N)=O)CCCN(c2ccnc(-c3cnc4cnc(C(F)(F)F)cn34)n2)C1 (stereo not shown) ?
100 to 1000 nM

Could you tell me which Ki is on file for FC(F)(F)c1cn2c(-c3nccc(N4CCOC(c5cn[nH]c5)C4)n3)cnc2cn1 (stereo not shown) [IV-3] ?
< 10 nM

Could you tell me which Ki is on file for O=C(O)C1c2sccc2CCN1c1ccnc(-c2cnc3cnc(C(F)(F)F)cn23)n1 (stereo not shown) ?
> 1000 nM

Could you tell me which Ki is on file for CC1CN(c2nccc(-c3cnc4cnc(Cl)cn34)n2)C(C)C(c2cn[nH]c2)N1 (single isomer, unassigned) [IV-408] ?
100 to 1000 nM

Could you tell me which Ki is on file for OCC12CC1CN(c1ccnc(-c3cnc4cnc(C(F)F)cn34)n1)C2 (stereo not shown) ?
100 to 1000 nM

Could you tell me which Ki is on file for O=C1CCCC2CN(c3ccnc(-c4cnc5cnc(C(F)F)cn45)n3)CCN12 (stereo not shown) ?
100 to 1000 nM

Could you tell me which Ki is on file for CC1CN(c2ccnc(-c3cnc4cnc(C(F)(F)F)cn34)n2)CC(c2cn[nH]c2Cl)N1 (single isomer, unassigned) [IV-651] ?
< 10 nM

Could you tell me which Ki is on file for C[C@H]1CN(c2ccnc(-c3cnc4cnc(C(F)(F)F)cn34)n2)C[C@@H](c2c[nH]cn2)N1 (racemic) ?
< 10 nM

Could you tell me which Ki is on file for C[C@H]1NCCN(c2ccnc(-c3cnc4cnc(C5CC5)cn34)n2)[C@H]1c1cn[nH]c1 (relative stereo) ?
100 to 1000 nM

Could you tell me which Ki is on file for N#CC1CCCN(c2ccnc(-c3cnc4cnc(C(F)(F)F)cn34)n2)C1 (stereo not shown) ?
100 to 1000 nM

Could you tell me which Ki is on file for CC(=O)N1CCN(c2ccnc(-c3cnc4cnc(-c5cccc(O)c5)cn34)n2)CC1 ?
10 to 100 nM

Could you tell me which Ki is on file for FC(F)(F)c1cn2c(-c3nccc(N4CCC(Oc5cn[nH]c5)C4)n3)cnc2cn1 (stereo not shown) ?
10 to 100 nM

Could you tell me which Ki is on file for CC1C(c2cn[nH]c2)NCCN1c1ccnc(-c2cnc3cnc(Cl)cn23)n1 (single isomer, unassigned) [IV-229] ?
100 to 1000 nM

Could you tell me which Ki is on file for Cc1[nH]ncc1C1CN(c2ccnc(-c3cnc4cnc(C(F)F)cn34)n2)CC(C)N1 (single isomer, unassigned) [IV-463] ?
100 to 1000 nM

Could you tell me which Ki is on file for CC1CN(c2ccnc(-c3cnc4cnc(C(F)(F)F)cn34)n2)C(C)C(c2cn[nH]c2)N1 (single isomer, unassigned) [IV-223] ?
100 to 1000 nM

Could you tell me which Ki is on file for FC(F)(F)c1cn2c(-c3nccc(N4CCCC(C5CCOC5)C4)n3)cnc2cn1 (single isomer, unassigned) [IV-543] ?
100 to 1000 nM

Could you tell me which Ki is on file for FC(F)(F)c1cn2c(-c3nccc(N4CCO[C@H](c5ccccn5)C4)n3)cnc2cn1 ?
100 to 1000 nM

Could you tell me which Ki is on file for N#CC1CCCCN1c1ccnc(-c2cnc3cnc(C(N)=O)cn23)n1 (stereo not shown) ?
100 to 1000 nM

Could you tell me which Ki is on file for CC1CN(c2ccnc(-c3cnc4cnc(C#N)cn34)n2)C(C)C(c2cn[nH]c2)N1 (single isomer, unassigned) [IV-313] ?
100 to 1000 nM

Could you tell me which Ki is on file for FC(F)(F)c1cn2c(-c3nccc(N4CCC(Nc5cn[nH]c5)C4)n3)cnc2cn1 (stereo not shown) ?
100 to 1000 nM

Could you tell me which Ki is on file for FC(F)c1cn2c(-c3nccc(N4CCC5(CCNCC5)C4)n3)cnc2cn1 ?
100 to 1000 nM

Could you tell me which Ki is on file for OC[C@H]1CCCN(c2ccnc(-c3cnc4cnc(C(F)F)cn34)n2)C1 ?
100 to 1000 nM

Could you tell me which Ki is on file for CC1C(c2cn[nH]c2)OCCN1c1ccnc(-c2cnc3cnc(Cl)cn23)n1 (single isomer, unassigned) [IV-245] ?
100 to 1000 nM

Could you tell me which Ki is on file for Brc1cn2c(-c3nccc(N4CCCC(c5cn[nH]c5)C4)n3)cnc2cn1 (single isomer, unassigned) [IV-360] ?
< 10 nM

Could you tell me which Ki is on file for CC1C(c2c[nH]cn2)CCCN1c1ccnc(-c2cnc3cnc(C(F)(F)F)cn23)n1 (stereo not shown) ?
< 10 nM

Could you tell me which Ki is on file for CC1C(c2cn[nH]c2)OCCN1c1ccnc(-c2cnc3cnc(Cl)cn23)n1 (single isomer, unassigned) [IV-9] ?
< 10 nM

Could you tell me which Ki is on file for NC(=O)c1cn2c(-c3nccc(N4CCC(=O)N5CCCC5C4)n3)cnc2cn1 (stereo not shown) ?
100 to 1000 nM

Could you tell me which Ki is on file for FC(F)(F)c1cn2c(-c3nccc(N4CCC[C@H](c5c[nH]cn5)C4)n3)cnc2cn1 ?
10 to 100 nM

Could you tell me which Ki is on file for NS(=O)(=O)CC1CCCN(c2ccnc(-c3cnc4cnc(C(F)F)cn34)n2)C1 (stereo not shown) ?
100 to 1000 nM
